B1: library; a variant is named by its letters at N, in order (parent)
chain: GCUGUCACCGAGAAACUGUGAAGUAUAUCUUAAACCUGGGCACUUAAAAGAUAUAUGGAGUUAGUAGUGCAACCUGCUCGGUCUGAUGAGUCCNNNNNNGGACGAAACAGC

- Variants of: B1
- method notes: normalized RNA/DNA level with ligand (relative to sTRSVctl = 100) (log10 (% of sTRSVctl)); HEK293T; ligand: cyclic di-GMP (c-di-GMP-II aptamer); ligand concentration (+) RNA-Seq: 1 mM; higher = less ribozyme self-cleavage, higher mRNA level
- condition info: reporter: mCherry (pCS4076), ligand present: yes
metric name: normalized RNA/DNA level with ligand (log10)
In your answer, state the number alone without any accompanying words.

[
  {
    "mutant label": "UGCGCC",
    "recorded measurement": 1.92
  },
  {
    "mutant label": "CUAUGC",
    "recorded measurement": 1.86
  },
  {
    "mutant label": "CGAAGU",
    "recorded measurement": 1.84
  },
  {
    "mutant label": "CCAGCC",
    "recorded measurement": 1.86
  },
  {
    "mutant label": "UGAGAU",
    "recorded measurement": 1.78
  },
  {
    "mutant label": "AAUCGA",
    "recorded measurement": 1.69
  },
  {
    "mutant label": "GACUUU",
    "recorded measurement": 1.85
  },
  {
    "mutant label": "GAAAGU",
    "recorded measurement": 1.71
  }
]

Look at this variant and give its reported normalized RNA/DNA level with ligand (log10). "UGCUCC"
1.93

Now try "ACUUGG" .
1.75

Now the same for "CGGGAU"
1.64

Same question for "CGCUAU" please.
1.64

Would you mind doing "UGCUGG" as well?
1.87

Now give it for "AAACGG" too.
1.7

Same thing, different variant: "UUACGC"
1.86

Then "CGGGUA" ?
1.75

Entry to check: "GUCACG"
1.84

Do the same for "AUCCCU" please
1.91

Continue with "CCGGCG"
1.77

Now consider "CAUUCU" .
1.73

Lookup "CGCAGC"
1.87

Another variant: "GCGCAA"
1.72

One more variant: "GAGCUC"
1.91

How about "AACAGC" ?
1.78

Input "GAUAAU"
1.75

Data origin, for the record: the supplement of paper PMC6757056
